B1: Azoarcus group I ribozyme (parent)
chain: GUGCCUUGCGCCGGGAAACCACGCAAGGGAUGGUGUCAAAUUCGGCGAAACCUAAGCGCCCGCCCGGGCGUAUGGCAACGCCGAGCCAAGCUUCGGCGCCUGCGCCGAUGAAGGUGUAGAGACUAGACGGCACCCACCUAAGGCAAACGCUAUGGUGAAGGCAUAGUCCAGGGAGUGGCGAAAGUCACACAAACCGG

Variants of: B1
Assay: reverse-splicing fitness (ratio to wild type); higher = more active; in vitro selection; Mg2+ level not given
Could you label it fulfilled if measured reverse-splicing fitness is 0.009 or higher, and not fulfilled otherwise?

Enquiry: Decide: reverse-splicing fitness of A111C A120G A145U C150A C169A >= 0.009?
Return: fulfilled

Enquiry: Repeat for the following variant: C82G A111G A120C A145C C150A C169U U176A
Return: fulfilled

Enquiry: Repeat for the following variant: C82A A111G A120U A145C C150U C169G U176G
Return: not fulfilled

Enquiry: Repeat for the following variant: C82G A111U A120C A145G C150A C169U U176G
Return: not fulfilled

Enquiry: Repeat for the following variant: C82A A111U A120U C150U U176A
Return: not fulfilled

Enquiry: Repeat for the following variant: C82A A111G A120C A145U C169U U176A
Return: fulfilled

Enquiry: Repeat for the following variant: C82G A111G A145U C150A C169U
Return: fulfilled

Enquiry: Repeat for the following variant: C82G A120G A145U C169A U176A
Return: fulfilled

Enquiry: Repeat for the following variant: C82U A145U C169A
Return: not fulfilled

Enquiry: Repeat for the following variant: C82G A111U A145U C150G C169U U176A
Return: not fulfilled

Enquiry: Repeat for the following variant: C82U A111C A120C A145G C150A U176A
Return: fulfilled

Enquiry: Repeat for the following variant: C82A A120G A145C C169A
Return: fulfilled

Enquiry: Repeat for the following variant: C82G A111C A145G C150A U176C
Return: fulfilled

Enquiry: Repeat for the following variant: C82A A111U A120U C150U C169A U176G
Return: not fulfilled

Enquiry: Repeat for the following variant: C82G A111U A120U A145C C169A U176C
Return: not fulfilled

Enquiry: Repeat for the following variant: C82G A111U A120C A145C C169U U176G
Return: not fulfilled

Enquiry: Repeat for the following variant: A111C A145G C169A U176C
Return: fulfilled

Enquiry: Repeat for the following variant: A111G A120C A145U C169U U176C
Return: fulfilled

Enquiry: Repeat for the following variant: C82U A111G A120C A145C C150U C169A
Return: not fulfilled

Enquiry: Repeat for the following variant: C169A U176A
Return: fulfilled
